Entries and their measured half-life at 20 μM follow.
# experiment-summary: SIF assay (stability in simulated intestinal fluid)
# Assay type: in vitro ADME
# settings: simulated intestinal fluid (SIF) with pancreatin; simulated intestinal fluid, pH 6.8, pancreatin, 37° C., 20 μM

The following compounds have reported results that may help.
INSERT INTO results (structure_as_smiles, value_observed) VALUES
  ('C[C@@H](NC(=O)[C@@H](N)Cc1ccc(O)c(Cl)c1)C(=O)NCC(=O)N[C@H](CC(=O)N(C)CC(N)=O)Cc1ccccc1', '6 to 24 h'),
  ('Cc1cc(C(N)=O)cc(C)c1C[C@H](N)C(=O)N[C@H](C)C(=O)NCC(=O)N[C@H](CC(=O)N(C)CC(=O)O)Cc1ccccc1', '> 24 h');

Please look at the following compound next.
Entry Cc1cc(C(N)=O)cc(C)c1C[C@H](N)C(=O)N[C@H](Cc1ccc(O)cc1)C(=O)NCC(=O)N[C@H](CC(=O)N(C)CC(N)=O)Cc1ccccc1 — recorded half-life at 20 μM = > 24 h

* * *

Entries and their measured pEC50 follow.
# experimental-system: δ-opioid receptor (DOR) (Homo sapiens, UniProt P41143)
# Sequence (P41143 whole entry): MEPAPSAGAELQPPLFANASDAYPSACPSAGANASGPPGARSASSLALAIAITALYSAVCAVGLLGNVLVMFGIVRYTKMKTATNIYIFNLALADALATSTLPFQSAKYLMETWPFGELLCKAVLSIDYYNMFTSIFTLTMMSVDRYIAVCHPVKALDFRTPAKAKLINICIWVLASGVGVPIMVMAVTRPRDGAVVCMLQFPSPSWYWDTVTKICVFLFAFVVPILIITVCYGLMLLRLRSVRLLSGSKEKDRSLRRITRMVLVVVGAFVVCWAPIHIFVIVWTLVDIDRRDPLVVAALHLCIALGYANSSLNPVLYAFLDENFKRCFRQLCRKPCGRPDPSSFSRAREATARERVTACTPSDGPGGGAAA
# experiment-summary: DOR agonist cAMP assay (HitHunter cAMP, forskolin-stimulated)
# Description: The HitHunter® cAMP chemiluminescent assay kit (DiscoveRx, Cat# 90-0075 SM25) was used to detect cAMP production in cAMP Hunter™ Gαi cell lines over expressing either Human-ORPM1 (Discoverx, Catalog# 95-0107C2) or Human-ORPD1 (DiscoveRx, Catalog# 95-0108C2). […] Cellular cAMP concentrations were measured using the HitHunter cAMP Assay kit following the manufacturer's protocol. […] The amount of signal is directly proportional to the amount of cAMP in cells and can be quantified using cAMP standards. […]
pEC50: −log10 of the molar value. Square brackets hold non-standard residues; d marks the D form. Peptide text beside a SMILES is read from it. Phe(3,4-Cl2) = N[C@@H](Cc1ccc(Cl)c(Cl)c1)C(=O)O; Dmt = Cc1cc(O)cc(C)c1C[C@H](N)C(=O)O; Sar = CNCC(=O)O

The following compounds have reported results that may help.
INSERT INTO results (compound, value_observed) VALUES
  ('C[C@@H](NC(=O)[C@@H](N)Cc1cccc(O)c1)C(=O)NCC(=O)N[C@H](CC(=O)N(C)CC(N)=O)Cc1ccccc1', '< 6.70'),
  ('Cc1cc(O)cc(C)c1C[C@H](N)C(=O)N[C@H](CCCNC(=N)N)C(=O)N[C@@H](Cc1ccc(Cl)c(Cl)c1)C(=O)N(C)CC(N)=O [compound 22] (H-[Dmt][dR][Phe(3,4-Cl2)][Sar]-NH2)', '7.30 to 8.00'),
  ('CC[C@H](C)[C@@H](C(=O)O)N(C)C(=O)C[C@H](Cc1ccccc1)NC(=O)CNC(=O)[C@@H](CCC(=O)O)NC(=O)[C@@H](N)Cc1c(C)cc(O)cc1C', '> 9.00');

Entry Cc1cc(O)cc(C)c1C[C@H](N)C(=O)N[C@H](C)C(=O)NCC(=O)N[C@H](CC(=O)N(CCC(=O)O)CC(N)=O)Cc1ccccc1 — recorded pEC50 = > 9.00

Entry CCCC[C@@H](C(=O)O)N(C)C(=O)C[C@H](Cc1ccccc1C)NC(=O)CNC(=O)[C@@H](C)NC(=O)[C@@H](N)Cc1c(C)cc(C(N)=O)cc1C — recorded pEC50 = 8.00 to 9.00

Entry Cc1cc(C(N)=O)cc(C)c1C[C@H](N)C(=O)N[C@H](C)C(=O)NCC(=O)N[C@H](CC(=O)N(C)[C@@H](Cc1ccc(O)cc1)C(=O)O)Cc1ccccc1 — recorded pEC50 = > 9.00
